Reported values of CD28 scFv signal for individual entries
molecular target: Anti-CD28 scFv (VH - linker 1 - VL) (biotinylated (site not given)); test: phage binding ELISA; biotinylated anti-CD28 scFv on neutravidin plate, bound phage detected with anti-M13-HRP
Sequence (scFv, as listed by the source): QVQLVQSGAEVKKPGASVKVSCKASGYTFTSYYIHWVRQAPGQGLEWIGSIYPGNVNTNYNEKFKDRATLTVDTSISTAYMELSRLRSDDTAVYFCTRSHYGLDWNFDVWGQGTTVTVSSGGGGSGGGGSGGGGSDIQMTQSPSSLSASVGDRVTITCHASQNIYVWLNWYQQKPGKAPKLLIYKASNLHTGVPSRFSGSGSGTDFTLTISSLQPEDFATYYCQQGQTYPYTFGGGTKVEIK
Where no end group is shown, it is not given here.
// no unit, no text: just the number

These recorded examples may help you get a feel for the data.
MDWCPRHLWHVCFN (cysteine pairing not given here; also: displayed on phage pIII, linker not given here, Clonal phage of the Peptide-9 library, tested as crude phage supernatant; not shown: pIII of the bacteriophage) [Phage-264] | 2.67
MYWCATSMWNRCFV (cysteine pairing not given here; also: displayed on phage pIII, linker not given here, Clonal phage of the Peptide-9 library, tested as crude phage supernatant; not shown: pIII of the bacteriophage) [Phage-262] | 0.398

Ask | Consider the binder MDWCPRDFWAFCFF (cysteine pairing not given here; also: displayed on phage as fusion to pIII, fusion limits and linker not given here, Clonal phage of the Peptide-9 library, tested as crude phage supernatant; not shown: pIII of the bacteriophage) [Phage-270] and give its measured CD28 scFv signal.
Reply | 2.37

Ask | Continue with MDWCPRFMWSECFS (cysteine pairing not given here; also: fused to phage pIII, linker and fusion site not given here, Clonal phage of the Peptide-9 library, tested as crude phage supernatant; not shown: pIII of the bacteriophage) [Phage-251]
Reply | 1.01

Ask | Continue with MDWCPRSHWSECFS (cysteine pairing not given here; also: displayed on phage as fusion to pIII, fusion limits and linker not given here, Clonal phage of the Peptide-9 library, tested as crude phage supernatant; not shown: pIII of the bacteriophage) [Phage-277]
Reply | 0.253

Ask | Ok, now MDWCPRHMWHECFA (cysteine pairing not given here; also: displayed on phage pIII, linker not given here, Clonal phage of the Peptide-9 library, tested as crude phage supernatant; not shown: pIII of the bacteriophage) [Phage-263]
Reply | 2.52

Ask | Try this binder too: MVWCMSVGWAVCLN (cysteine pairing not given here; also: displayed on phage as fusion to pIII, fusion limits and linker not given here, Clonal phage of the Peptide-9 library, tested as crude phage supernatant; not shown: pIII of the bacteriophage) [Phage-272]
Reply | 0.271

Ask | Here is the next binder: MDWCPRHLWSVCFN (cysteine pairing not given here; also: fused to phage pIII, linker and fusion site not given here, Clonal phage of the Peptide-9 library, tested as crude phage supernatant; not shown: pIII of the bacteriophage) [Phage-255]
Reply | 2.65

Entry source: patent US20260242478A1
